Hey, just so you know, these numbers are from ChEMBL document CHEMBL1154780.

- experiment_notes: Cytotoxicity against human lymphocytes assessed as cell viability up to 30 uM
- Type: cell-based, Lymphocyte
- measurement_setup: read-out: Activity
value_kind: viability (%)
Expressed in %, but write only the number.

Quick one: viability for `C/C=C/CNC(=N)NCCCCCCCCN1CCCCCCCCNC(=N)NC1=O` ? 100

###

- Tested on: Candida parapsilosis
- experiment_notes: Anticandidal activity against Candida parapsilosis ATCC 34136 after 24 hrs by spectrophotometry
- Type: functional
- measurement_setup: Lodderomyces parapsilosis, ATCC 34136, 24 h
value_kind: MIC (µM)
Expressed in µM, but write only the number.

Use the examples below as a reference point.
1. C#CCNC(=N)NCCCCCCCCN1CCCCCCCCNC(=N)NC1=O = 40
2. N=C(NCCCCCCCCN1CCCCCCCCNC(=N)NC1=O)NCc1ccccc1 = 80
3. N=C(N)NCCCCCCCCNCCCCCCCCNC(=N)NCC1CC1 = 80
4. C/C=C/CNC(=N)NCCCCCCCCN1CCCCCCCCNC(=N)NC1=O = 5

// next item, MIC requested
Quick one: MIC for `OC(Cn1cncn1)(Cn1cncn1)c1ccc(F)cc1F` ? 6.5

###

Entries and their MIC values follow.
- Test system: Candida albicans
- experiment_notes: Anticandidal activity against Candida albicans ATCC 60193 after 24 hrs by spectrophotometry
- Type: functional
- measurement_setup: ATCC 60193, 24 h
Expressed in µM, but write only the number.

1. N=C(N)NCCCCCCCCNCCCCCCCCNC(=N)NCC1CC1 = 20

Please provide the recorded MIC for `C/C=C/CNC(=N)NCCCCCCCCN1CCCCCCCCNC(=N)NC1=O` , tested on Candida albicans. 2.5

Next compound up: `N=C(N)NCCCCCCCCN(CCCCCCCCNC(=N)N)C(=N)N` 5

Next compound up: `CC(C)=CCNC(=N)NCCCCCCCCN1CCCCCCCCNC(=N)NC1=O` 40

Next compound up: `CC(C)=CCNC(=N)NCCCCCCCCNCCCCCCCCNC(=N)N` 80

###

- experiment_notes: Therapeutic index, ratio of drug level reducing 50% viability of human lymphocytes at 25 degC to MIC50 for Candida sp.
value_kind: Ratio

Quick one: Ratio for `C/C=C/CNC(=N)NCCCCCCCCN1CCCCCCCCNC(=N)NC1=O` ? 2.4

###

Entries and their MIC values follow.
- System: Candida albicans
- experiment_notes: Anticandidal activity against Candida albicans 4T after 24 hrs by spectrophotometry
- Format: functional
Expressed in µM, but write only the number.

Use the examples below as a reference point.
1. CC(C)=CCNC(=N)NCCCCCCCCNCCCCCCCCNC(=N)NCC=C(C)C = 80
2. N=C(N)NCCCCCCCCNCCCCCCCCNC(=N)N [IMINOCTADIENE] = 80
3. OC(Cn1cncn1)(Cn1cncn1)c1ccc(F)cc1F [FLUCONAZOLE] = 209
4. C=C(C)CNC(=N)NCCCCCCCCN1CCCCCCCCNC(=N)NC1=O = 40

Quick one: MIC for `CC(C)=CCNC(=N)NCCCCCCCCN1CCCCCCCCNC(=N)NC1=O` ? 20

###

- Test system: Pichia kudriavzevii
- experiment_notes: Anticandidal activity against Candida krusei 193T after 24 hrs by spectrophotometry
- Type: functional
Entries and their MIC values follow.
Expressed in µM, but write only the number.

Quick one: MIC for `N=C(N)NCCCCCCCCNCCCCCCCCNC(=N)N` ? 20

Next compound up: `OC(Cn1cncn1)(Cn1cncn1)c1ccc(F)cc1F` 418

Next compound up: `N=C(NCCCCCCCCN1CCCCCCCCNC(=N)NC1=O)NCc1ccccc1` 10

Next compound up: `N=C(N)NCCCCCCCCN(CCCCCCCCNC(=N)N)C(=N)N` 40

Next compound up: `CC(C)=CCNC(=N)NCCCCCCCCN1CCCCCCCCNC(=N)NC1=O` 20

Next compound up: `CC(C)=CCNC(=N)NCCCCCCCCNCCCCCCCCNC(=N)NCC=C(C)C` 80

###

- System: Pichia kudriavzevii
- experiment_notes: Anticandidal activity against Candida krusei 193T after 24 hrs by spectrophotometry
- Assay type: functional
Entries and their MIC values follow.
Show the value, then the unit it is measured in.

Use the examples below as a reference point.
1) N=C(N)NCCCCCCCCNCCCCCCCCNC(=N)NCC1CC1 = 10 µM
2) C#CCNC(=N)NCCCCCCCCN1CCCCCCCCNC(=N)NC1=O = 40 µM
3) C/C=C/CNC(=N)NCCCCCCCCN1CCCCCCCCNC(=N)NC1=O = 5 µM
4) CC(C)=CCNC(=N)NCCCCCCCCNCCCCCCCCNC(=N)N = 20 µM

// next item, MIC requested
Quick one: MIC for `C=C(C)CNC(=N)NCCCCCCCCN1CCCCCCCCNC(=N)NC1=O` ? 80 µM
